Below is a list of entries, each paired with its recorded mean fluorescence intensity value.
- assay target: his-labeled human IL-13 (immunogen A) (human) (UniProt P35225)
- method notes: FACS blocking, biotin-IL-13 on IL-13Ra2 HEK293 cells; antibody at 166.67 nM

Here's what some known entries look like.
c28A2E11 (mouse-human chimeric IL-13 antibody) (antibody, V domains shown) VH: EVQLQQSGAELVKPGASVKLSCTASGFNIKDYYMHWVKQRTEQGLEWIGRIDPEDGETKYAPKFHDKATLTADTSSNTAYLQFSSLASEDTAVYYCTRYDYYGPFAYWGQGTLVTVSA VL: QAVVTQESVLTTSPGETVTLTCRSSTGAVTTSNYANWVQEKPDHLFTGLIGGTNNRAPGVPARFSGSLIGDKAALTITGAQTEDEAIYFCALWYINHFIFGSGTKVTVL = 58
29D9H8 (lead antibody, mouse hybridoma) (antibody, V domains shown, Mouse monoclonal antibody purified from hybridoma supernatant on Protein G) VH: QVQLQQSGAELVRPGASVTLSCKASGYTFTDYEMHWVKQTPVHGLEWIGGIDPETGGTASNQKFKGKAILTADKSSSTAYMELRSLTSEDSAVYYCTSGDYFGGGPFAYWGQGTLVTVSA VL: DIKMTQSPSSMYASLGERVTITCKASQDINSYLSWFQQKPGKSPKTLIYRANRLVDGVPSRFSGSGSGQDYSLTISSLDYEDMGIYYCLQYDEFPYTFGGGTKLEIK = 20.5

Now consider the entry below.
query: If you can, please state the reported mean fluorescence intensity value of c29D9H8 (mouse-human chimeric IL-13 antibody) (antibody, V domains shown) VH: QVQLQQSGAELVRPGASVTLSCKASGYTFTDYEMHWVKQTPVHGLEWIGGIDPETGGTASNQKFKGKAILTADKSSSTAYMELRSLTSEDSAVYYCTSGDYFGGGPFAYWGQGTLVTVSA VL: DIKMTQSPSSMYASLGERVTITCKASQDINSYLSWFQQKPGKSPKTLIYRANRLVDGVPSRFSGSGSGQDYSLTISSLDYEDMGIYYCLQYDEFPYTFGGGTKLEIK .
result: 20.4
